# target of assay: T1, FLAG-tagged human IL-11 expressed at the surface of transiently transfected cells (human, UniProt P20809 22-199)
# T1 construct: also called IL-11 expressing HEK cells; target cells expressing human IL-11 at their surface; not shown: FLAG tag added to the N-terminus
# T1 sequence: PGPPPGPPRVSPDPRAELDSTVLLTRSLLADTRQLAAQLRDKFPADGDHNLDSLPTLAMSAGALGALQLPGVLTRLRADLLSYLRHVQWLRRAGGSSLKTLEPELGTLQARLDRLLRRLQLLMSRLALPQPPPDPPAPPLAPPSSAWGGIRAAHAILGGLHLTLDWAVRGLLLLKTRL
# assay comment: flow cytometry, hybridoma supernatant on cells transfected with pB1-IL11-hum.FL
Field: label. Allowed values: Satisfied (GMFI < 200000) or Not satisfied (GMFI >= 200000).

binder	qualitative label
BSN-3C6 (antibody, V domains shown, Mouse monoclonal antibody from a hybridoma; also called A6; anti-IL-11 antibody clone BSN-3C6) VH: EVQLQQSGPELVKPGASVKIPCKASGYTFTDYNMDWVKQSHGKSLEWIGDINPHNGGPIYNQKFTGKATLTVDKSSSTAYMELRSLTSEDTAVYYCARGELGHWYFDVWGTGTTVTVSS VL: DIVLTQSPASLAVSLGQRATISCRASKSVSTSGYSYIHWYQQKPGQPPKLLIYLASNLDSGVPARFSGSGSGTDFTLNIHPVEEEDAATYYCQHSRDLPPTFGGGTKLEIK	Not satisfied
BSN-7D4 (antibody, V domains shown, Mouse monoclonal antibody from a hybridoma; also called A12) VH: EVQLQQSGPELVKPGASVKISCKASGYTFTDYNMDWVKQSQGKRLEWIGDINPNYGGTIYNQKFKGKATLTVDKSSSTAYMELRSLTSEDTTVYYCTRGELGHWYFDVWGTGTTVTVSS VL: DIVLTQSPPSLTVSLGQRATISCRASKSVSASGYSYMHWYQQKPGQPPKLLIYLTSNLESGVPARFSGSGSGTDFTLNIHPVEEEDAATYYCQHSWDLPPTFGGGTKLEIK	Not satisfied
BSN-8H11 (antibody, IgG2b, V domains shown, also called A16) VH: EVQLQQSGPELVKPGASVKIPCKASGYTFTDYNIDWVKQSHGKSLEWIGDINPNYGGTLYNQKFKGKATLTVDKSSSTAYMELRSLTSEDTAVYYCARGELGHWYFDVWGTGTTVTVSS VL: DIVLTQSPASLAVSLGQRATISCRASKSVSTSDYSYMHWYQQKPGHPPKLLIYLASNLESGVPARFSGSGSGTDFTLNIHPVEEEDAATYFCQHSRDLPPTFGGGTKLEIK	Not satisfied
BSN-2G6 (antibody, V domains shown) VH: QVQLQESGPELVKPGASVKIPCKASGYTFTDYNMDWVKQSHGKSLEWIGNINPDNGGTIYNQKFKGKATLTVDKSSSTAYMELRSLTSEDTAVYFCAREGPYGYTWFAYWGQGTLDTVSA VL: DILLTQSPAILSVSPGERVSFSCRASQSIGTSIHWYQQRTNGSPRLLIKYASESISGIPSRFSGSGSGTDFTLSINSVESEDIADYYCQQSNSWPLTFGAGTKLELK	Satisfied

Field: next binder
// query In plain terms, does BSN-5B8 (antibody, V domains shown) VH: QVQLQQSGAELARPGTSVKLSCKASGYTFTSYGISWVKQRTGQGLEWIGEIYPRSSNTYYNEKFKGKATLTADKSSSTAYMELRSLTSEDSADYFCARANWVGYFDVWGTGTTVTVSS VL: DIVMTQSHKFMSTSVGDRVTITCKASQDVGTAVAWYQQKPGQSPKLLIYWASTRLTGVPDRFTGSGSGTYFTLTINNVQSEDLADYFCQQYSSYRTFGGGTKLEIK come in under 200000 for GMFI?
// result Not satisfied
